Molecular target: BAFF (R&D Systems, 7537-BF) (UniProt Q9Y275 134-285)
Assay: cell-based or functional assay
outcome measure: IC50 (nM) for the inhibition of the BAFF-induced B cell proliferation
# value in nM; strip the unit string

[
  {
    "binder": "TACI-9-15Fc8 fusion protein (Fc fusion, Full-length chain) STSCREEQGEFYDHLLRDCISCASICGQHPKQCAAFCEEPKSSDKTHTCPPCPAPEAEGAPSVFLFPPKPKDTLMISRTPEVTCVVVDVSHEDPEVKFNWYVDGVEVHNAKTKPREEQYNSTYRVVSVLTVLHQDWLNGKEYKCKVSNKALPSSIEKTISKAKGQPREPQVYTLPPSRDELTKNQVSLTCLVKGFYPSDIAVEWESNGQPENNYKTTPPVLDSDGSFFLYSKLTVDKSRWQQGNVFSCSVMHEALHNHYTQKSLSLSPGGGGSSTSCREEQGEFYDHLLRDCISCASICGQHPKQCAAFCESK",
    "recorded number": 0.0291
  },
  {
    "binder": "TACI-9-15Fc7 fusion protein (Fc fusion, Full-length chain) STSCREEQGEFYDHLLRDCISCASICGQHPKQCAAFCEEPKSSDKTHTCPPCPAPEAEGAPSVFLFPPKPKDTLMISRTPEVTCVVVDVSHEDPEVKFNWYVDGVEVHNAKTKPREEQYNSTYRVVSVLTVLHQDWLNGKEYKCKVSNKALPSSIEKTISKAKGQPREPQVYTLPPSRDELTKNQVSLTCLVKGFYPSDIAVEWESNGQPENNYKTTPPVLDSDGSFFLYSKLTVDKSRWQQGNVFSCSVMHEALHNHYTQKSLSLSPGGGGSSTSCREEQGEFYDHLLRDCISCASICGQHPKQCAAFCEQK",
    "recorded number": 0.0244
  }
]

Which IC50 (nM) for the inhibition of the BAFF-induced B cell proliferation reading was recorded for the binder TACI-9-15Fc9 fusion protein (Fc fusion, Full-length chain) STSCREEQGEFYDHLLRDCISCASICGQHPKQCAAFCEEPKSSDKTHTCPPCPAPEAEGAPSVFLFPPKPKDTLMISRTPEVTCVVVDVSHEDPEVKFNWYVDGVEVHNAKTKPREEQYNSTYRVVSVLTVLHQDWLNGKEYKCKVSNKALPSSIEKTISKAKGQPREPQVYTLPPSRDELTKNQVSLTCLVKGFYPSDIAVEWESNGQPENNYKTTPPVLDSDGSFFLYSKLTVDKSRWQQGNVFSCSVMHEALHNHYTQKSLSLSPGGGGSSTSCREEQGEFYDHLLRDCISCASICGQHPKQCAAFCESS ?
0.0262

Subsequent entry: TACI-9-15Fc6 fusion protein (Fc fusion, Full-length chain) STSCREEQGEFYDHLLRDCISCASICGQHPKQCAAFCEEPKSSDKTHTCPPCPAPEAEGAPSVFLFPPKPKDTLMISRTPEVTCVVVDVSHEDPEVKFNWYVDGVEVHNAKTKPREEQYNSTYRVVSVLTVLHQDWLNGKEYKCKVSNKALPSSIEKTISKAKGQPREPQVYTLPPSRDELTKNQVSLTCLVKGFYPSDIAVEWESNGQPENNYKTTPPVLDSDGSFFLYSKLTVDKSRWQQGNVFSCSVMHEALHNHYTQKSLSLSPGK
0.0481

Subsequent entry: RCT-18 (Telitacicept) (Fc fusion, Positive control; TACI part is positions 13-118 of the extracellular region of human TACI, the rest is Fc) SRVDQEERFPQGLWTGVAMRSCPEEQYWDPLLGTCMSCKTICNHQSQRTCAAFCRSLSCRKEQGKFYDHLLRDCISCASICGQHPKQCAYFCENKLRSPVNLPPELDKTHTCPPCPAPEAEGAPSVFLFPPKPKDTLMISRTPEVTCVVVDVSHEDPEVKFNWYVDGVEVHNAKTKPREEQYNSTYRVVSVLTVLHQDWLNGKEYKCKVSNKALPSSIEKTISKAKGQPREPQVYTLPPSRDELTKNQVSLTCLVKGFYPSDIAVEWESNGQPENNYKTTPPVLDSDGSFFLYSKLTVDKSRWQQGNVFSCSVMHEALHNHYTQKSLSLSPGK
0.382
